experiment: amyloid nucleation score (Sup35N fusion, yeast selection) (log enrichment); library NNK2; higher = more nucleation; inactive = no reads after selection;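 further: zero at mode of non-aggregating sequences after 7 days selection at 30°C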
experimental.endpoint: amyloid nucleation score

IVFFVSWLIKCKPWFLVVNM    inactive
GSRARNLIASAQYYNG    inactive
HVISTSW    inactive
TILKDSTPAVYNVRMRFKAW    inactive
RVTSIVYLKLICFMGVSNLF    inactive

Now examine the next entry.
Request: Read off the recorded amyloid nucleation score for `YYVTNSGSWLDACHGLYKTG`
Result: inactive

---

experiment: amyloid nucleation score (Sup35N fusion, yeast selection) (log enrichment); library NNK2; higher = more nucleation; inactive = no reads after selection
Hi, to clarify the labels: rule met covers amyloid nucleation score from -0.02 upward, rule not met covers anything below -0.02.

Example results:
YANERNTDFNNRWFLHGIKR    rule not met
QSLFFVI    rule not met
QSMICTFFVLCLRSRYW    rule met

Request: Please indicate if the recorded amyloid nucleation score for `VDRFFLEARCLELTSQ` meets or exceeds -0.02.
Result: rule met

Request: Please indicate if the recorded amyloid nucleation score for `TYPHVLTP` meets or exceeds -0.02.
Result: rule not met

Request: Please indicate if the recorded amyloid nucleation score for `SILFFKGGLRRSLEHLACTA` meets or exceeds -0.02.
Result: rule met

Request: Please indicate if the recorded amyloid nucleation score for `FVANSRLLALRLVIGTMLAG` meets or exceeds -0.02.
Result: rule met

Request: Please indicate if the recorded amyloid nucleation score for `ITIYQYTNYLYGSWCNHLML` meets or exceeds -0.02.
Result: rule met

Request: Please indicate if the recorded amyloid nucleation score for `PCITLAFPVNKSRF` meets or exceeds -0.02.
Result: rule not met

---

test: amyloid nucleation score (Sup35N fusion, yeast selection) (log enrichment); library NNK3; higher = more nucleation; inactive = no reads after selection
experimental.endpoint: amyloid nucleation score

SMDCFYLSHCRYRPRVI    inactive
LYDTDSCLSSYCSPFRHPRY    inactive
GSLFVI    inactive
WGCYSWTMVRS    1.33
RSLFHSAFEFRFLGLTECTY    inactive
RNRWPLPRYICRFKGFSHVV    inactive
LLDCFKLYSSHLAEGRTTVT    inactive
IYIKCFNVSFLRSADWSKCA    inactive
FSIAMFQANSGYASR    1.25
CVSPDCMLMGAHDYGVERWL    inactive

Request: Read off the recorded amyloid nucleation score for `GIREAV`
Result: inactive

Request: Read off the recorded amyloid nucleation score for `TIISCFREKIGLSRM`
Result: inactive

Request: Read off the recorded amyloid nucleation score for `SLIYTRFGSTSWCSKNF`
Result: 1.53

Request: Read off the recorded amyloid nucleation score for `MCYVVNAHGVASQ`
Result: inactive

Request: Read off the recorded amyloid nucleation score for `ACDTVEDGTSGGHCWVCGDG`
Result: inactive

Request: Read off the recorded amyloid nucleation score for `FAQFLG`
Result: inactive

Request: Read off the recorded amyloid nucleation score for `ISFNFHSSSTGRA`
Result: 1.38

Request: Read off the recorded amyloid nucleation score for `KGCPVASMAQWNSCMCYVLV`
Result: 1.08

Request: Read off the recorded amyloid nucleation score for `WNLVPSHMFFV`
Result: inactive

Request: Read off the recorded amyloid nucleation score for `GSLVRV`
Result: inactive

Request: Read off the recorded amyloid nucleation score for `LWFPVEGGYPPSDVKQKHIS`
Result: 0.086

Request: Read off the recorded amyloid nucleation score for `FFGFPLV`
Result: inactive

Request: Read off the recorded amyloid nucleation score for `YKICSLACVKHGREPV`
Result: inactive

Request: Read off the recorded amyloid nucleation score for `NMVPNCDLLMKSRLKVSNSA`
Result: inactive

Request: Read off the recorded amyloid nucleation score for `TLLFFCLEQTFNWFIMIQ`
Result: inactive

Request: Read off the recorded amyloid nucleation score for `SSPCSVMVKVGSDHFERVAI`
Result: inactive

Request: Read off the recorded amyloid nucleation score for `FKGLVVMKGLLNMIGGGACH`
Result: 0.27

Request: Read off the recorded amyloid nucleation score for `FDLLRSNYYSFRCVCEVIDR`
Result: inactive

Request: Read off the recorded amyloid nucleation score for `RYLPRTSFPTIL`
Result: inactive

Request: Read off the recorded amyloid nucleation score for `CCRSWRSYSTVVFICGFLYW`
Result: inactive

Request: Read off the recorded amyloid nucleation score for `TWESGENLTLTWAAQMGRCG`
Result: inactive
